# System: Wolbachia pipientis
# ASSAY_SUMMARY: Anti-Wolbachia Cell-Based Screen
# Format: functional
# Parameters: scale not given: in the data most compounds retested in dose-response had high values
# ASSAY_CONDITIONS: 5 µM
Out of some 48,000 compounds screened, about 13,000 (27%) showed an effect of 50% or more. The list shows a part of the results.
Property: Percent Effect; scope: individual molecules
Numbers only here, please. The scale is %.

Give the measured Percent Effect of Cc1nnc2n1CCN(CC(=O)NC(C)c1cc3ccccc3o1)C2 (stereo unspecified) . -0.5236

Give the measured Percent Effect of Cc1cc(N2CCC(n3cc(CN4CCSCC4)nn3)CC2)ccn1 . -12.68

Give the measured Percent Effect of CCCN1CCC(CC(=O)NCc2cc(C)nn2C)CC1 . -10.83

Give the measured Percent Effect of COCCN1CCC(CNC(=O)C2(C#N)CCCCC2)CC1 . -10.25

Give the measured Percent Effect of Cc1cc(C)cc(C2(C(=O)NCC(C)CN3CCCC3=O)CC2)c1 (stereo unspecified) . 2.33

Give the measured Percent Effect of N#Cc1ccc(CNC(=O)NC2CCN(CC(F)(F)F)C2)cc1 (stereo unspecified) . 9.13

====

# System: Wolbachia pipientis
# ASSAY_SUMMARY: Anti-Wolbachia Cell-Based Screen
# Assay type: functional
# Parameters: scale not given: in the data most compounds retested in dose-response had high values
# ASSAY_CONDITIONS: 5 µM
About 13,000 (27%) of roughly 48,000 compounds showed an effect of 50% or more. The list shows a part of the results.
Property: Percent Effect; scope: individual molecules
Numbers only here, please. The scale is %.

Example molecules with recorded Percent Effect:
INSERT INTO measurements (molecule, assayed_target, property_measured, reported) VALUES
  ('I.c1ccc(OCCNC2=NCCCN2)cc1', 'Wolbachia pipientis', 'Percent Effect', 111),
  ('CSc1nccn1-c1cccc(C(=O)NCc2nnc(C)n2C)c1', 'Wolbachia pipientis', 'Percent Effect', 4.938),
  ('CSc1nccn1-c1cccc(C(=O)NCCC(=O)NC(C)C)c1', 'Wolbachia pipientis', 'Percent Effect', 87.94);

Give the measured Percent Effect of CN(C(=O)c1cccc(C(=O)NCC(F)(F)F)c1)c1ccccc1 . -5.375

Give the measured Percent Effect of Fc1ccc(OCCCN2CC(n3cccn3)C2)cc1 . 3.105

Give the measured Percent Effect of Fc1ccc(OCCCNC2=NCCN2)cc1.I . 63.04

Give the measured Percent Effect of Cc1ccc(CN2CC[C@H]3C[C@H](c4nc(C5CC5)cs4)O[C@@H]3C2)o1 . 7.352

Give the measured Percent Effect of Fc1ccc(OCCCNC2=NCCCN2)cc1.I . 81.36

Give the measured Percent Effect of CSc1nccn1-c1cccc(C(=O)NCC(F)(F)F)c1 . 95.57

Give the measured Percent Effect of Cc1noc([C@@H]2C[C@H]3CN(C(=O)C4CCN(C)CC4)C[C@H]3O2)n1.O=C(O)C(F)(F)F . 11.84

Give the measured Percent Effect of O=C(O)C(F)(F)F.c1csc(CN2CCc3ncnc(C4CCOC4)c3CC2)c1 (stereo unspecified) . -9.496

====

# Test system: Wolbachia pipientis
# ASSAY_SUMMARY: Anti-Wolbachia Cell-Based Screen
# Type: functional
# Set-up: scale not given: in the data most compounds retested in dose-response had high values
# ASSAY_CONDITIONS: 5 µM
Hit rate of the full screen: of about 48,000 compounds, about 13,000 (27%) showed an effect of 50% or more. The list shows a part of the results.
PROPERTY_MEASURED: Percent Effect (%)
Numbers only here, please. The scale is %.

INSERT INTO assay_data (mol, assayed_target, reported) VALUES
  ('COc1cc(C(=O)NCc2cc(N3CCOCC3)ncn2)ccn1', 'Wolbachia pipientis', 5.956),
  ('CNc1cc(CNC(=O)c2ccnc(OC)c2)nc(-c2ccncc2)n1', 'Wolbachia pipientis', 103.5),
  ('CNc1cc(CNC(=O)c2ccncc2)nc(-c2ccncc2)n1', 'Wolbachia pipientis', 109.4),
  ('CNc1cc(CNC(=O)c2ccccc2)nc(-c2ccncc2)n1', 'Wolbachia pipientis', -7.143),
  ('CNc1cc(CNC(=O)c2cccnc2)nc(-c2ccncc2)n1', 'Wolbachia pipientis', 94.55);

// switching to the query compound
Give the measured Percent Effect of CNc1cc(CNC(=O)c2ccccc2OC)nc(-c2ccncc2)n1 . 104.1

====

# System: Wolbachia pipientis
# ASSAY_SUMMARY: Anti-Wolbachia Cell-Based Screen
# Assay type: functional
# Set-up: scale not given: in the data most compounds retested in dose-response had high values
# ASSAY_CONDITIONS: 5 µM
The campaign covered roughly 48,000 compounds. About 13,000 (27%) showed an effect of 50% or more. The list shows a part of the results.
PROPERTY_MEASURED: Percent Effect (%)
Numbers only here, please. The scale is %.

Example compounds with recorded Percent Effect:
INSERT INTO results (compound, reading_unit, reported) VALUES
  ('O=c1[nH]nc(SCC2CCCO2)n1C1CC1 (stereo unspecified)', '%', -2.947),
  ('O=C(CN1CCc2cncnc2C1)N1CCc2sccc2C1', '%', -26.01),
  ('N#CCCNC(=O)CSc1cc(F)ccc1F', '%', 8.044);

Give the measured Percent Effect of CN(C)c1ncc(CNC(=O)Nc2ccc(C(F)(F)F)cc2)n1C . 20.28

Give the measured Percent Effect of c1cnc2c(-c3nccn3C[C@@H]3CCCN4CCCC[C@H]34)cccc2c1 . 5.22

Give the measured Percent Effect of CCc1cnc(C)nc1N1CCS(=O)(=O)CC1 . 16.32

====

# Tested on: Wolbachia pipientis
# ASSAY_SUMMARY: Anti-Wolbachia Cell-Based Screen
# Assay type: functional
# Parameters: scale not given: in the data most compounds retested in dose-response had high values
# ASSAY_CONDITIONS: 5 µM
Screen size: about 48,000 compounds; about 13,000 (27%) showed an effect of 50% or more. Some of the results follow.
Property: Percent Effect; scope: individual molecules
Numbers only here, please. The scale is %.

Example molecules with recorded Percent Effect:
INSERT INTO results (molecule, reported) VALUES
  ('CCc1ccc(CC(=O)N2CCN(c3nccn3C)CC2)cc1', 102.2),
  ('CS(=O)(=O)N1C[C@@H]2CC[C@H](C1)N(CCC(=O)NCc1ccco1)C2', 6.139),
  ('CCN1CCN(C2CCN(Cc3noc(C)n3)CC2)C1=O', 2.974),
  ('COc1ccc(CN2C[C@@H]3OCC(=O)N(Cc4nccn4C)[C@@H]3C2)cc1', -2.723),
  ('CCc1nnc(CN2CCC(N3CCN(CC)C3=O)CC2)o1', 119.1),
  ('O=C(NCC(F)(F)F)C1CCCN(Cc2ccno2)C1 (stereo not drawn)', -13.93);

Give the measured Percent Effect of CCN1CCN(C2CCN(Cc3ncc(C(C)(C)C)o3)CC2)C1=O . -2.934

Give the measured Percent Effect of Cc1ccc(NC2CCN(C(=O)COc3cccc(F)c3)CC2)nn1 . 99.48

====

# System: Wolbachia pipientis
# ASSAY_SUMMARY: Anti-Wolbachia Cell-Based Screen
# Assay type: functional
# Set-up: scale not given: in the data most compounds retested in dose-response had high values
# ASSAY_CONDITIONS: 5 µM
Screen size: about 48,000 compounds; about 13,000 (27%) showed an effect of 50% or more. This is one part of the list.
Property: Percent Effect; scope: individual compounds
Numbers only here, please. The scale is %.

Example compounds with recorded Percent Effect:
INSERT INTO results (compound, reading_unit, reported) VALUES
  ('O=C(Nc1ccc(-c2csnn2)cc1)N1CCC(N2CCCC2)C1 (stereo unspecified)', '%', 0.9),
  ('CC1CCN(C(=O)NCC(=O)N(C)CC(F)(F)F)C1 (stereo unspecified)', '%', 103.3),
  ('Cc1c(C(=O)NC(CN2CCCC2=O)c2ccccc2)cnn1C (stereo unspecified)', '%', -6.718),
  ('CN(CC(F)(F)F)C(=O)CNC(=O)Cc1ccc(O)cc1Cl', '%', -9.929),
  ('Cc1c(C(=O)NC(C)CC(=O)c2cccs2)cnn1C (stereo unspecified)', '%', 85.26);

Give the measured Percent Effect of c1csc(-c2noc(C3CCCOC3)n2)c1 (stereo unspecified) . -23.77

====

# Tested on: Wolbachia pipientis
# ASSAY_SUMMARY: Anti-Wolbachia Cell-Based Screen
# Type: functional
# Set-up: scale not given: in the data most compounds retested in dose-response had high values
# ASSAY_CONDITIONS: 5 µM
Hit rate of the full screen: of about 48,000 compounds, about 13,000 (27%) showed an effect of 50% or more. The list shows a part of the results.
Values of Percent Effect strictly less than 80% map to TRUE, and values of at least 80% map to FALSE.

Some solved entries appear below for comparison.
INSERT INTO results (molecule, cat) VALUES
  ('O=C(NCCCN1CCOCC1)c1cc(-c2ccccc2)[nH]n1', 'FALSE'),
  ('CN1CCC2(CCN(Cc3nccs3)CC2)C1=O.O=C(O)C(F)(F)F', 'TRUE');

// switching to the query molecule
Below 80% on Percent Effect? Entry Cn1ccnc1-c1cccc(NC(=O)NCCCN2CCOCC2)c1 TRUE
